- assaySystem: Adrenergic receptor alpha-2 (Homo sapiens, UniProt P08913+P18825+P18089)
- assayProtocol: Compound was evaluated for Adrenergic activity against Alpha-2 adrenergic receptor in human platelets
I'd appreciate it if you marked entries 1 (yes) when IC50 is lower than 0.03 nM and 0 (no) when it is not.

Hello, is IC50 of the following compound strictly smaller than 0.03 nM? CC(c1ccc2ccccc2c1)c1ncc[nH]1.O=C(O)C(=O)O (stereo unspecified)
0 (no)

Please determine if CC(C1=NCCN1)c1cccc2ccccc12.Cl (stereo unspecified) is below 0.03 nM in terms of IC50.
1 (yes)

---

Kindly state Max for each of the entries shown.
- Species: Rattus norvegicus
- assayProtocol: Percent maximal analogue response relative to phenylephrine =100%
- Type: functional
Answers are plain numbers, in %.

Record excerpt, results attached:
>  <compound>
Cl.c1ccc2c(Cc3ncc[nH]3)cccc2c1

>  <Max, %>
56

$$$$
>  <compound>
CC(c1ncc[nH]1)c1cccc2ccccc12.Cl (stereo unspecified)

>  <Max, %>
40

$$$$
>  <compound>
CC(C1=NCCN1)c1cccc2ccccc12.Cl (stereo unspecified)

>  <Max, %>
62

$$$$
>  <compound>
CC(c1c[nH]cn1)c1cccc2ccccc12.Cl (stereo unspecified)

>  <Max, %>
27

$$$$
>  <compound>
Cl.c1ccc2c(CC3=NCCN3)cccc2c1 [NAPHAZOLINE HYDROCHLORIDE]

>  <Max, %>
68

$$$$

We now examine a further compound.
What Max value was documented for this compound, Cc1cccc(C(C)c2c[nH]cn2)c1C.Cl (stereo unspecified) [MEDETOMIDINE HYDROCHLORIDE] ?
42

---

- assayProtocol: Potency ratio is defined as EC50 (medetomidine) / EC50 (compound)
assayEndpoint: Potency ratio
Give bare numbers.

Provide the reported Potency ratio of each entry below, same order.
1. CC(c1c[nH]cn1)c1cccc2ccccc12.Cl (centres undefined)
2. Cl.c1ccc2c(Cc3ncc[nH]3)cccc2c1
3. CC(c1ncc[nH]1)c1cccc2ccccc12.Cl (centres undefined)
4. CC(C1=NCCN1)c1cccc2ccccc12.Cl (centres undefined)

1.6
1.6
0.04
0.57

---

- assayProtocol: Potency ratio is defined as IC50(medetomidine)/IC50(compound)
assayEndpoint: Potency ratio
One number for each entry.

Here's what some known entries look like.
>  <compound>
CC(c1ccc2ccccc2c1)c1ncc[nH]1.O=C(O)C(=O)O (configuration not stated)

>  <value>
0.0054

$$$$
>  <compound>
CC(c1ccc2ccccc2c1)c1c[nH]cn1.Cl (configuration not stated)

>  <value>
0.028

$$$$
>  <compound>
CC(c1ncc[nH]1)c1cccc2ccccc12.Cl (configuration not stated)

>  <value>
0.013

$$$$
>  <compound>
CC(c1c[nH]cn1)c1cccc2ccccc12.Cl (configuration not stated)

>  <value>
0.97

$$$$

Can you give me Potency ratio for all of these, one by one?
1. Cl.c1ccc2c(Cc3ncc[nH]3)cccc2c1
2. CC(C1=NCCN1)c1ccc2ccccc2c1.Cl (configuration not stated)
3. CC(C1=NCCN1)c1cccc2ccccc12.Cl (configuration not stated)

1. 0.097
2. 0.21
3. 0.24

---

- assaySystem: Adrenergic receptor alpha-2 (Homo sapiens, UniProt P08913+P18825+P18089)
- assayProtocol: Compound was evaluated for Adrenergic activity against Alpha-2 adrenergic receptor in human platelets
Record form. Attribute: IC50. Fill in for each entry.
Provide the measurement as a number trailed by its unit.

In the examples that follow, each entry is paired with its recorded IC50.
>  <molecule>
CC(c1ncc[nH]1)c1cccc2ccccc12.Cl (centres undefined)

>  <IC50>
0.26 nM

$$$$
>  <molecule>
CC(C1=NCCN1)c1ccc2ccccc2c1.Cl (centres undefined)

>  <IC50>
0.016 nM

$$$$
>  <molecule>
Cl.c1ccc2c(Cc3ncc[nH]3)cccc2c1

>  <IC50>
0.034 nM

$$$$

Look up IC50: CC(c1ccc2ccccc2c1)c1c[nH]cn1.Cl (centres undefined)
0.12 nM
